Source: ChEMBL document CHEMBL4303097

tested on: SARS-CoV-2; assay: Inhibition of cell viability relative to arbidol control (inhibition index > 1 indicates higher activity) measured by fluorescence (OD590nm) in Vero E6 cells infected with SARS-CoV-2 (strain BavPat1) at MOI 0.002 after 72hrs; assay type: functional, Chlorocebus sabaeus, Vero C1008
Over roughly 1,500 compounds, “Inhibition index” has its median near 0.17; the highest 2% begin near 1.3. Only a selection was taken, and the highest values are over-represented in it overall.
Categories are assigned from the measured Inhibition index using these intervals: low value (below 0.09), medium value (0.09 to below 0.3), high value (0.3 or more)

COMPOUND	DISCRETE_LABEL
C[C@H]1O[C@@H](O[C@H]2[C@@H](O)C[C@H](O[C@H]3[C@@H](O)C[C@H](O[C@H]4CC[C@@]5(C)[C@H](CC[C@@H]6[C@@H]5C[C@@H](O)[C@]5(C)[C@@H](C7=CC(=O)OC7)CC[C@]65O)C4)O[C@@H]3C)O[C@@H]2C)C[C@H](O)[C@@H]1O	medium value
CC(C)NNC(=O)c1ccncc1.O=P(O)(O)O [IPRONIAZID PHOSPHATE]	low value
CC(C)NCC(O)c1cc(O)cc(O)c1.CC(C)NCC(O)c1cc(O)cc(O)c1.O=S(=O)(O)O (configuration not stated) [METAPROTERENOL SULFATE]	low value
CCOC(=O)NNc1nncc2ccccc12.Cl [TODRALAZINE HYDROCHLORIDE]	low value

query: Hi there! Could you help me figure out the category for CCN1CCN(C(=O)N[C@@H](C(=O)N[C@@H]2C(=O)N3C(C(=O)O)=C(CSc4nnnn4C)CS[C@H]23)c2ccc(O)cc2)C(=O)C1=O.O.O [CEFOPERAZONE DIHYDRATE] please?
result: medium value

query: Classify this compound: CN(C)CCc1c[nH]c2ccc(Cn3cncn3)cc12.O=C(O)c1ccccc1 [RIZATRIPTAN BENZOATE]
result: high value

query: Bin? CO/N=C(\C(=O)N[C@@H]1C(=O)N2C(C(=O)OC(C)OC(C)=O)=C(COC(N)=O)CS[C@H]12)c1ccco1 (some centres not stated)
result: medium value

query: Which Inhibition index category applies to O=C(NC1CCN(CCCCC2(C(=O)NCC(F)(F)F)c3ccccc3-c3ccccc32)CC1)c1ccccc1-c1ccc(C(F)(F)F)cc1 [LOMITAPIDE] here?
result: low value

query: Categorize the following entry: `CC#C[C@]1(O)CC[C@H]2[C@@H]3CCC4=CC(=O)CCC4=C3[C@@H](c3ccc(N(C)C)cc3)C[C@@]21C`
result: medium value

query: Lab log: `CN(C)N=Nc1[nH]cnc1C(N)=O` — assign Inhibition index category
result: low value

query: Hello team, could you let me know which band the following compound falls into: `C[C@]12CCC(=O)C(O)=C1CC[C@@H]1[C@@H]2CC[C@]2(C)C(=O)CC[C@@H]12`
result: high value

---

Form field: Inhibition index (one value per entry).
tested on: SARS-CoV-2; experiment: Inhibition of cell viability relative to arbidol control (inhibition index > 1 indicates higher activity) measured by fluorescence (OD590nm) in Vero E6 cells infected with SARS-CoV-2 (strain BavPat1) at MOI 0.002 after 72hrs; assay type: functional, Chlorocebus sabaeus, Vero C1008
Over roughly 1,500 compounds, “Inhibition index” has its median near 0.17; the highest 2% begin near 1.3. Shown is part of a subset that was picked to be rich in the highest values.
Hey, just send me the number, nothing else.

COMPOUND	TEST_TARGET	Inhibition index
CCC(=O)O[C@@H]1CC(=O)O[C@H](C)C/C=C/C=C/[C@H](O)[C@H](C)C[C@H](CC=O)[C@H](O[C@@H]2O[C@H](C)[C@@H](O[C@H]3C[C@@](C)(O)[C@@H](OC(=O)CC)[C@H](C)O3)[C@H](N(C)C)[C@H]2O)[C@H]1OC [MIDECAMYCIN]	SARS-CoV-2	0.09553
COCCc1ccc(OCC(O)CNC(C)C)cc1.COCCc1ccc(OCC(O)CNC(C)C)cc1.O=C(O)C(O)C(O)C(=O)O (configuration not stated) [METOPROLOL TARTRATE]	SARS-CoV-2	0.03331
COc1c(-c2ccc3cc(NS(C)(=O)=O)ccc3c2)cc(-n2ccc(=O)[nH]c2=O)cc1C(C)(C)C [DASABUVIR]	SARS-CoV-2	0.184

query: # query: Inhibition index of entry O=C1CN(/N=C/c2ccc(-c3ccc([N+](=O)[O-])cc3)o2)C(=O)[N-]1.[Na+] [DANTROLENE SODIUM]
result: 0.3986

---

system: SARS-CoV-2; assay: Inhibition of cell viability relative to arbidol control (inhibition index > 1 indicates higher activity) measured by fluorescence (OD590nm) in Vero E6 cells infected with SARS-CoV-2 (strain BavPat1) at MOI 0.002 after 72hrs; assay type: functional, Chlorocebus sabaeus, Vero C1008
Whole data set: some 1,500 compounds, median “Inhibition index” near 0.17, cut for the highest 2% near 1.3. For the sample, the highest values were picked, then their nearest neighbours and some compounds at random.
molecules and their reported Inhibition index

A selection of reference data follows.
MOLECULE	Inhibition index
COc1ccc(CC2c3cc(OC)c(OC)cc3CC[N+]2(C)CCC(=O)OCCCCCOC(=O)CC[N+]2(C)CCc3cc(OC)c(OC)cc3C2Cc2ccc(OC)c(OC)c2)cc1OC.O=S(=O)([O-])c1ccccc1.O=S(=O)([O-])c1ccccc1 (centres undefined) [ATRACURIUM BESYLATE]	0.8693
CN1CCN(CCCN2c3ccccc3Sc3ccc(C(F)(F)F)cc32)CC1.Cl.Cl [TRIFLUOPERAZINE HYDROCHLORIDE]	-0.1697
CN1C[C@H](CNC(=O)OCc2ccccc2)C[C@@H]2c3cccc4c3c(cn4C)C[C@H]21	-0.1165
Cl.Cl.Fc1ccc(C(OCCN2CCN(CCCc3ccccc3)CC2)c2ccc(F)cc2)cc1	-0.1375
O=C([O-])C[C@H](O)C[C@H](O)/C=C/c1c(C2CC2)nc2ccccc2c1-c1ccc(F)cc1.O=C([O-])C[C@H](O)C[C@H](O)/C=C/c1c(C2CC2)nc2ccccc2c1-c1ccc(F)cc1.[Ca+2]	-0.03681
COC(c1ccccc1)(c1ccccc1)C(Oc1nc(C)cc(C)n1)C(=O)O (centres undefined)	1.459

query: Missing value: Inhibition index, SARS-CoV-2, entry C=CCc1ccccc1OCC(O)CNC(C)C.Cl (centres undefined) [ALPRENOLOL HYDROCHLORIDE] . Fill in?
result: 0.02886

query: Hello, I am looking for reported Inhibition index with SARS-CoV-2 for COc1cc2nc(N3CCN(C(=O)C4CCCO4)CC3)nc(N)c2cc1OC.Cl (centres undefined) . Could you help?
result: -0.01131

query: Look up Inhibition index with SARS-CoV-2 for this molecule: CCN(CC)CCNC(=O)c1ccc(N)cc1.Cl [PROCAINAMIDE HYDROCHLORIDE]
result: 0.2557

query: Look up Inhibition index with SARS-CoV-2 for this molecule: Cc1[nH]cnc1CN1CCc2c(c3ccccc3n2C)C1=O.Cl [ALOSETRON HYDROCHLORIDE]
result: 0.152

query: Request body: readout Inhibition index, system SARS-CoV-2, query N=C(N)NCCN1CCCCCCC1.N=C(N)NCCN1CCCCCCC1.O=S(=O)(O)O [GUANETHIDINE SULFATE] . Return the value.
result: 0.04902

query: Requested read-out Inhibition index, target or system SARS-CoV-2, entry `CC[C@H](C)C(=O)O[C@H]1C[C@H](O)C=C2C=C[C@H](C)[C@H](CC[C@@H](O)C[C@@H](O)CC(=O)O)[C@H]21`
result: 0.3233

query: Report Inhibition index for CCC(=O)OC(OP(=O)(CCCCc1ccccc1)CC(=O)N1C[C@H](C2CCCCC2)C[C@H]1C(=O)O)C(C)C (some centres undefined) tested on SARS-CoV-2.
result: 1.038

query: Which measured Inhibition index belongs to CC(C)(C)NC[C@H](O)COc1cccc2c1CCCC2=O.Cl [LEVOBUNOLOL HYDROCHLORIDE] , tested on SARS-CoV-2?
result: 0.5259

---

system: SARS-CoV-2; experiment: Inhibition of cell viability relative to arbidol control (inhibition index > 1 indicates higher activity) measured by fluorescence (OD590nm) in Vero E6 cells infected with SARS-CoV-2 (strain BavPat1) at MOI 0.002 after 72hrs; assay type: functional, Chlorocebus sabaeus, Vero C1008
The full ranking holds about 1,500 compounds; the median of “Inhibition index” is about 0.17, and the highest 2% start at about 1.3. Many of the other results were omitted from the sample, so the highest values are more common in it than they were.
Please note: Inhibition index exactly at 0.1 is not fulfilled. Only values below 0.1 get fulfilled.

Examples with answers:
SMILES_INPUT	DISCRETE_LABEL
CN[C@H](CC(C)C)C(=O)N[C@H]1C(=O)N[C@@H](CC(N)=O)C(=O)N[C@H]2C(=O)N[C@H]3C(=O)N[C@H](C(=O)N[C@H](C(=O)O)c4cc(O)cc(O)c4-c4cc3ccc4O)[C@H](O)c3ccc(c(Cl)c3)Oc3cc2cc(c3O[C@@H]2O[C@H](CO)[C@@H](O)[C@H](O)[C@H]2O[C@H]2C[C@](C)(N)[C@H](O)[C@H](C)O2)Oc2ccc(cc2Cl)[C@H]1O.Cl	fulfilled
CC(C)(O/N=C(\C(=O)N[C@@H]1C(=O)N2C(C(=O)[O-])=C(C[n+]3ccccc3)CS[C@H]12)c1csc(N)n1)C(=O)O.O.O.O.O.O	fulfilled
CC1(C)S[C@@H]2[C@H](NC(=O)[C@H](N)c3ccc(O)cc3)C(=O)N2[C@H]1C(=O)O	not fulfilled
CC[C@]12CCCN3CCc4c(n(c5ccccc45)[C@@](O)(C(=O)OC)C1)[C@@H]32	not fulfilled

query: Here's an entry: `CCN1CCC[C@H]1CNC(=O)c1c(OC)ccc(Br)c1OC.Cl` . Is its Inhibition index below 0.1?
result: not fulfilled
